Target: NAMPT (Homo sapiens (Human))
Sequence (P43490 whole entry): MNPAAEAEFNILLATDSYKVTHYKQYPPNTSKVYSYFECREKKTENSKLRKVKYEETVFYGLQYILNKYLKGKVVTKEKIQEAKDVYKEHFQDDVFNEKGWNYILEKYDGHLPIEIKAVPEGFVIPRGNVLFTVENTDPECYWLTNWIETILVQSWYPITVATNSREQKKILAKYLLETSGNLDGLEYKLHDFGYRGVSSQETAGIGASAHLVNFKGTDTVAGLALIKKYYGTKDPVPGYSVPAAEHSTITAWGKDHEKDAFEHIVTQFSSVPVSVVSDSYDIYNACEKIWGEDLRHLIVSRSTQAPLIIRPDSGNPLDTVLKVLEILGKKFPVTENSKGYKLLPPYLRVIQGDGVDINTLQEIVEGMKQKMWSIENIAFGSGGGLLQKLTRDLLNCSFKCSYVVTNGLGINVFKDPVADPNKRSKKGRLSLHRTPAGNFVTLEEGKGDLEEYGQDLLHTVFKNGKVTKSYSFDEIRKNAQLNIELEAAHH
Assay: Biochemical Inhibition Assay (NAMPT enzymatic reaction, NMN quantified by mass spectrometry)
Conditions: recombinant His-tagged NAMPT, 33 nM; 1 μM NAM; read-out: Biochem IC50
pIC50: −log10 of the molar value.
Answer 0.0 if pIC50 is under 8, and 1.0 if it is 8 or more.

{"molecular.string": "COc1cccc(S(=O)(=O)c2ccc(NC(=O)/C=C/c3cccnc3)cc2)c1", "assigned.class": 0.0}

Incoming: Is pIC50 for COc1cc(Cl)cc(S(=O)(=O)c2ccc(NC(=O)/C=C/c3cccnc3)cc2)c1 at or above 8?
Outgoing: 0.0

Incoming: Field entry: O=C(/C=C/c1cccnc1)Nc1ccc(S(=O)(=O)c2cccc(OC(F)(F)F)c2)cc1
Outgoing: 0.0

Incoming: Could you do the same for CN(C)c1ccc(S(=O)(=O)c2ccc(NC(=O)/C=C/c3cccnc3)cc2)cn1 , please?
Outgoing: 1.0

Incoming: Would you kindly repeat that for CCCOc1cccc(S(=O)(=O)c2ccc(NC(=O)/C=C/c3cccnc3)cc2)c1 ?
Outgoing: 0.0

Incoming: // same read-out, input: O=C(/C=C/c1cccnc1)Nc1ccc(S(=O)(=O)c2cnc3ccccc3c2)cc1
Outgoing: 1.0

Incoming: Now give it for O=C(/C=C/c1cccnc1)Nc1ccc(S(=O)(=O)c2cccc3c2OCC3)cc1 too.
Outgoing: 1.0

Incoming: Okay, and O=C(/C=C/c1cccnc1)Nc1ccc(S(=O)(=O)c2cccc(-c3ccccc3)c2)cc1 ?
Outgoing: 0.0

Incoming: Likewise for O=C(/C=C/c1cccnc1)NCc1ccc(S(=O)(=O)N2CC3CCC(C2)O3)cc1 ?
Outgoing: 1.0

Incoming: Request: O=C(/C=C/c1cccnc1)Nc1ccc(S(=O)(=O)c2cncc3ccccc23)cc1
Outgoing: 1.0

Incoming: Can you check O=C(/C=C/c1cccnc1)Nc1ccc(S(=O)(=O)c2ccc(Cl)cc2)cc1 next?
Outgoing: 0.0

====

Hi there, I'd appreciate the recorded log10(IC50) for every entry that follows.
Molecular target: NAMPT (Homo sapiens (Human))
Experiment: Biochemical Inhibition Assay (NAMPT enzymatic reaction, NMN quantified by mass spectrometry)
Details: recombinant His-tagged NAMPT, 33 nM; 1 μM NAM; read-out: Biochem IC50
The common logarithm of IC50 in nM is what is listed.

{"molecule": "O=C(/C=C/c1cccnc1)Nc1ccc(S(=O)(=O)c2ccc(-c3ccccc3)cc2)cc1", "log10(IC50)": 0.65}
{"molecule": "CCN(CC)C(=O)c1cc(Cl)cc(S(=O)(=O)c2ccc(NC(=O)/C=C/c3cccnc3)cc2)c1", "log10(IC50)": 1.29}
{"molecule": "Cn1c(S(=O)(=O)c2ccc(NC(=O)/C=C/c3cccnc3)cc2)cc2ccccc21", "log10(IC50)": 1.34}

Would you mind giving log10(IC50) for every molecule in the list below?
1. COc1ccc(C(C)C)cc1S(=O)(=O)c1ccc(NC(=O)/C=C/c2cccnc2)cc1
2. Cn1ncc2cc(S(=O)(=O)c3ccc(NC(=O)/C=C/c4cccnc4)cc3)ccc21
3. O=C(/C=C/c1cccnc1)Nc1ccc(S(=O)(=O)c2cncc(N3CCCC3)c2)cc1

Outgoing:
0.41
0.28
0.15

List reported log10(IC50) for each of these molecules:
1. CCc1cccc(S(=O)(=O)c2ccc(NC(=O)/C=C/c3cccnc3)cc2)c1
2. O=C(/C=C/c1cccnc1)Nc1ccc(S(=O)(=O)c2cc(Cl)cc(Cl)c2)cc1 [(2E)-N-{4-[(3,5-dichlorobenzene)sulfonyl]phenyl}-3-(pyridin-]

Outgoing:
1: 0.52; 2: 1.70
